Data credit: paper PMC3371024

Target: A1501 EPSPS (Stutzerimonas stutzeri)
Construct: gene aroA
Experiment: Pi release (Lanzetta reagent, […] nm); Km(obs) of PEP versus glyphosate
Assay type: biochemical
Conditions: 1 mM S3P, varied PEP, 50 mM HEPES-NaOH pH 7.0, 100 mM KCl, 2 mM DTT, 25 °C; competitive with PEP; read-out: K i (glyphosate; μM)
READOUT KIND: Ki (µM)
Write the answer as a number in µM, unit excluded.

Dear colleague, I am looking for the recorded Ki of the following molecule: O=C(O)CNCP(=O)(O)O [glyphosate, N-phosphonomethyl glycine]
467

---

Target: AM79 EPSPS
Construct: gene aroA; aroA in pET-28a, stop codon removed so two His tags (N- and C-terminal), E. coli Rosetta (DE3), Ni-NTA purified; printed residues Ala107, Phe114, Ala355, His356, Glu357
Assay: Pi release (Lanzetta reagent, […] nm); Km(obs) of PEP versus glyphosate
Assay type: biochemical, uncultured soil bacterium
Conditions: 1 mM S3P, varied PEP, 50 mM HEPES-NaOH pH 7.0, 100 mM KCl, 2 mM DTT, 25 °C; competitive with PEP; read-out: K i (glyphosate; μM)
READOUT KIND: Ki

Dear colleague, I am looking for the recorded Ki of the following molecule: O=C(O)CNCP(=O)(O)O [glyphosate, N-phosphonomethyl glycine]
154 µM
